Test system: 282377-053-R-J1-PDC complex spheroids, viability
Test: Anticancer human tumor 282377-053-R-J1-PDC patient-derived colon adenocarcinoma cell line growth inhibition [GQUAD]
Details: second compound 3.16 µM; first compound 0.316 µM; stronger effect = lower value
The reader will find reported viability, T/C values listed item by item below.

COMPOUND	viability, T/C (%)
COc1cccc2c1C(=O)c1c(O)c3c(c(O)c1C2=O)CC(O)(C(=O)CO)CC3OC1CC(N)C(O)C(C)O1 (stereo not given) + Cc1[nH]c2ccc(F)cc2c1-c1nc2c3cccnc3c3ncccc3c2[nH]1	32
O=C(c1cc(Cc2n[nH]c(=O)c3ccccc23)ccc1F)N1CCN(C(=O)C2CC2)CC1 + Cc1[nH]c2ccc(F)cc2c1-c1nc2c3cccnc3c3ncccc3c2[nH]1	93
CC(C)n1c(=O)n(C)c2cnc3cc(F)c(-c4ccc(OCCCN5CCCCC5)nc4)cc3c21 + Cc1cnc(CNC(=O)c2c(=O)c3ccc(N4CCCN(C)CC4)nc3n3c2sc2ccccc23)cn1	51.6
CC1COCCN1c1cc(-c2ccnn2C)c2ccnc(-c3ccn[nH]3)c2n1 (stereo not given) + CN(C)c1ccc(Nc2c3ccc(NC(=O)CCN4CCCC4)cc3nc3cc(NC(=O)CCN4CCCC4)ccc23)cc1	67.4
C=CCn1c(=O)c2cnc(Nc3ccc(N4CCN(C)CC4)cc3)nc2n1-c1cccc(C(C)(C)O)n1 + Cc1cnc(CNC(=O)c2c(=O)c3ccc(N4CCCN(C)CC4)nc3n3c2sc2ccccc23)cn1	45.4
O=C(NO)c1cnc(N2CCN(S(=O)(=O)c3ccc4ccccc4c3)CC2)nc1 + Cc1[nH]c2ccc(F)cc2c1-c1nc2c3cccnc3c3ncccc3c2[nH]1	7.14
COc1cccc2c1C(=O)c1c(O)c3c(c(O)c1C2=O)CC(O)(C(=O)CO)CC3OC1CC(N)C(O)C(C)O1 (stereo not given) + CN(C)c1ccc(Nc2c3ccc(NC(=O)CCN4CCCC4)cc3nc3cc(NC(=O)CCN4CCCC4)ccc23)cc1	96.5
CC(=O)O[C@H]1C(=O)[C@@]2(C)[C@H]([C@H](OC(=O)c3ccccc3)[C@]3(O)C[C@H](OC(=O)[C@H](O)[C@@H](NC(=O)c4ccccc4)c4ccccc4)C(C)=C1C3(C)C)[C@]1(OC(C)=O)CO[C@@H]1C[C@@H]2O + Cc1cnc(CNC(=O)c2c(=O)c3ccc(N4CCCN(C)CC4)nc3n3c2sc2ccccc23)cn1	29.8
Cc1cccc(N(C)C(=O)C2C(O)CCN2c2nc(C)cc(C(F)(F)F)c2C#N)c1 (stereo not given) + CN(C)c1ccc(Nc2c3ccc(NC(=O)CCN4CCCC4)cc3nc3cc(NC(=O)CCN4CCCC4)ccc23)cc1	96.7
Cc1[nH]c2ccccc2c1CCNCc1ccc(/C=C/C(=O)NO)cc1 + Cc1[nH]c2ccc(F)cc2c1-c1nc2c3cccnc3c3ncccc3c2[nH]1	38.1

====

System: 282377-053-R-J1-PDC complex spheroids, viability
Test: Anticancer human tumor 282377-053-R-J1-PDC cell line growth inhibition [GQUAD];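 note: spheroids exposed to compounds for 7 days before readout; percent of vehicle DMSO control viability with 100% = untreated-like growth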
Conditions: second compound 10 µM; first compound 1 µM; stronger effect = lower value
Source text: DNA G-quadruplex Stabilizer Agents in Combinations in Complex Spheroids A high-throughput screen of multi-cell type tumor spheroids was designed to identify active combinations of DNA G-quadruplex stabilizer agents and targeted small molecules. […] Compounds. […] If the clinical Cmax for an agent had not been determined, the highest concentration tested was 10 microM. […]
RECORDED_METRIC: viability, T/C (%)

COMPOUND	READOUT_NUMBER
COc1ncnc(C2CC2)c1-c1ncc2cnn(Cc3ccc(-c4nc(C(F)(F)F)cn4C(C)C)cc3)c2n1 + CN(C)c1ccc(Nc2c3ccc(NC(=O)CCN4CCCC4)cc3nc3cc(NC(=O)CCN4CCCC4)ccc23)cc1	66.3
CC(=O)O[C@H]1C(=O)[C@@]2(C)[C@H]([C@H](OC(=O)c3ccccc3)[C@]3(O)C[C@H](OC(=O)[C@H](O)[C@@H](NC(=O)c4ccccc4)c4ccccc4)C(C)=C1C3(C)C)[C@]1(OC(C)=O)CO[C@@H]1C[C@@H]2O + CN(C)c1ccc(Nc2c3ccc(NC(=O)CCN4CCCC4)cc3nc3cc(NC(=O)CCN4CCCC4)ccc23)cc1	18.8
COc1cccc2c1C(=O)c1c(O)c3c(c(O)c1C2=O)CC(O)(C(=O)CO)CC3OC1CC(N)C(O)C(C)O1 (configuration not stated) + Cc1[nH]c2ccc(F)cc2c1-c1nc2c3cccnc3c3ncccc3c2[nH]1	18.4
O=C(c1cc(Cc2n[nH]c(=O)c3ccccc23)ccc1F)N1CCN(C(=O)C2CC2)CC1 + CN(C)c1ccc(Nc2c3ccc(NC(=O)CCN4CCCC4)cc3nc3cc(NC(=O)CCN4CCCC4)ccc23)cc1	75.9
Nc1ccn(C2OC(CO)C(O)C2(F)F)c(=O)n1 (configuration not stated) + CN(C)c1ccc(Nc2c3ccc(NC(=O)CCN4CCCC4)cc3nc3cc(NC(=O)CCN4CCCC4)ccc23)cc1	30.9
COc1cccc2c1C(=O)c1c(O)c3c(c(O)c1C2=O)CC(O)(C(=O)CO)CC3OC1CC(N)C(O)C(C)O1 (configuration not stated) + CN(C)c1ccc(Nc2c3ccc(NC(=O)CCN4CCCC4)cc3nc3cc(NC(=O)CCN4CCCC4)ccc23)cc1	83.6
CCCS(=O)(=O)Nc1ccc(F)c(C(=O)c2c[nH]c3ncc(-c4ccc(Cl)cc4)cc23)c1F + Cc1cnc(CNC(=O)c2c(=O)c3ccc(N4CCCN(C)CC4)nc3n3c2sc2ccccc23)cn1	23.3

====

System: 282377-053-R-J1-PDC complex spheroids, viability
Test: Anticancer human tumor 282377-053-R-J1-PDC cell line growth inhibition [GQUAD];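 note: spheroids exposed to compounds for 7 days before readout; percent of vehicle DMSO control viability with 100% = untreated-like growth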
Details: second compound 3.16 µM; first compound 0.316 µM; stronger effect = lower value
Output schema: class label derived from viability, T/C. Mapping: low group (below 30%), middle group (30% to below 70%), high group (70% or more)

MOLECULE	CATEGORY
CC1COCCN1c1cc(C2(O)CC3CCC(C2)O3)c2cnn(-c3ccn[nH]3)c2n1 (stereo unspecified) + Cc1cnc(CNC(=O)c2c(=O)c3ccc(N4CCCN(C)CC4)nc3n3c2sc2ccccc23)cn1	low group
O=C(c1cc(Cc2n[nH]c(=O)c3ccccc23)ccc1F)N1CCN(C(=O)C2CC2)CC1 + CN(C)c1ccc(Nc2c3ccc(NC(=O)CCN4CCCC4)cc3nc3cc(NC(=O)CCN4CCCC4)ccc23)cc1	high group
COc1ccc([C@@H](O)c2cc(-c3ncnc4cc(N5CCOCC5)ccc34)c(F)cc2Cl)nn1 + Cc1cnc(CNC(=O)c2c(=O)c3ccc(N4CCCN(C)CC4)nc3n3c2sc2ccccc23)cn1	middle group
CC(C)n1c(=O)n(C)c2cnc3cc(F)c(-c4ccc(OCCCN5CCCCC5)nc4)cc3c21 + Cc1[nH]c2ccc(F)cc2c1-c1nc2c3cccnc3c3ncccc3c2[nH]1	high group
O=C(c1cc(Cc2n[nH]c(=O)c3ccccc23)ccc1F)N1CCN(C(=O)C2CC2)CC1 + Cc1cnc(CNC(=O)c2c(=O)c3ccc(N4CCCN(C)CC4)nc3n3c2sc2ccccc23)cn1	middle group
C=CC(=O)N1CCN(c2nc(=O)n(-c3c(C)ccnc3C(C)C)c3nc(-c4c(O)cccc4F)c(F)cc23)C(C)C1 (stereo unspecified) + CN(C)c1ccc(Nc2c3ccc(NC(=O)CCN4CCCC4)cc3nc3cc(NC(=O)CCN4CCCC4)ccc23)cc1	high group
CC1COCCN1c1cc(-c2ccnn2C)c2ccnc(-c3ccn[nH]3)c2n1 (stereo unspecified) + Cc1cnc(CNC(=O)c2c(=O)c3ccc(N4CCCN(C)CC4)nc3n3c2sc2ccccc23)cn1	low group
COc1ncnc(C2CC2)c1-c1ncc2cnn(Cc3ccc(-c4nc(C(F)(F)F)cn4C(C)C)cc3)c2n1 + Cc1cnc(CNC(=O)c2c(=O)c3ccc(N4CCCN(C)CC4)nc3n3c2sc2ccccc23)cn1	middle group
CCCS(=O)(=O)Nc1ccc(F)c(C(=O)c2c[nH]c3ncc(-c4ccc(Cl)cc4)cc23)c1F + Cc1cnc(CNC(=O)c2c(=O)c3ccc(N4CCCN(C)CC4)nc3n3c2sc2ccccc23)cn1	low group
CC[C@@]1(O)C(=O)OCc2c1cc1n(c2=O)Cc2cc3c(CN(C)C)c(O)ccc3nc2-1 + Cc1[nH]c2ccc(F)cc2c1-c1nc2c3cccnc3c3ncccc3c2[nH]1	low group

====

Each entry below lists one item and its recorded viability, T/C value.
Test system: 282377-053-R-J1-PDC complex spheroids, viability
Assay: Anticancer human tumor 282377-053-R-J1-PDC cell line growth inhibition [GQUAD];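 note: spheroids exposed to compounds for 7 days before readout; percent of vehicle DMSO control viability with 100% = untreated-like growth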
Details: second compound 0.1 µM; first compound 0.1 µM; stronger effect = lower value

MOLECULE	viability, T/C / %
COc1ncnc(C2CC2)c1-c1ncc2cnn(Cc3ccc(-c4nc(C(F)(F)F)cn4C(C)C)cc3)c2n1 + CN(C)c1ccc(Nc2c3ccc(NC(=O)CCN4CCCC4)cc3nc3cc(NC(=O)CCN4CCCC4)ccc23)cc1	90.2
CC1COCCN1c1cc(C2(S(C)(=N)=O)CC2)nc(-c2ccnc3[nH]ccc23)n1 (centres undefined) + Cc1[nH]c2ccc(F)cc2c1-c1nc2c3cccnc3c3ncccc3c2[nH]1	91.8
COc1cccc2c1C(=O)c1c(O)c3c(c(O)c1C2=O)CC(O)(C(=O)CO)CC3OC1CC(N)C(O)C(C)O1 (centres undefined) + Cc1cnc(CNC(=O)c2c(=O)c3ccc(N4CCCN(C)CC4)nc3n3c2sc2ccccc23)cn1	97.5
O=C(c1cc(Cc2n[nH]c(=O)c3ccccc23)ccc1F)N1CCN(C(=O)C2CC2)CC1 + Cc1cnc(CNC(=O)c2c(=O)c3ccc(N4CCCN(C)CC4)nc3n3c2sc2ccccc23)cn1	121
